Values compiled from patent US20080114047A1.

Assay Overview: in vitro
Measured Metric: IC50 (µM)
Hi! Could you send only the number? It should be in µM, unit omitted.

Cl.Cl.c1cc(OCCCCCOc2ccc(C3=NCCN3)cc2)cc(-c2cc3ccc(C4=NCCN4)cc3o2)c1 [Compound 64, dihydrochloride]; 3.7

Task: Bench note: what IC50 did Cl.Cl.c1cc(OCCCCCOc2ccc(C3=NCCN3)cc2)cc(-c2cc3cc(C4=NCCN4)ccc3o2)c1 [Compound 40, dihydrochloride] show?
Output: 2.62

Task: Bench note: what IC50 did Cl.Cl.N=C(N)c1ccc(OCCCOc2cccc(-c3cc4ccc(C(=N)N)cc4o3)c2)cc1 [Compound 56, dihydrochloride] show?
Output: 19.8

----------
Tested on: DNA
Assay Overview: DNA binding ΔTm
Test Context: Tables VI(a), VI(c)
Measured Metric: DNA binding Δ Tm
No unit in the answer, please; the number alone is enough.

Please review the following examples before continuing.
Cl.Cl.N=C(N)c1ccc2oc(CCc3cc4cc(C(=N)N)ccc4o3)cc2c1; 6.1
CC(C)NC(=N)c1ccc(OCCCOc2cccc(-c3cc4cc(C(=N)NC(C)C)ccc4o3)c2)cc1.Cl.Cl; 14.8

Now look at this one.
Task: Bench note: what DNA binding Δ Tm did "CC(C)NC(=N)c1ccc(OCCCCOc2ccc(-c3cc4cc(C(=N)NC(C)C)ccc4o3)cc2)cc1.Cl.Cl" show?
Output: 13.3

----------
Assay Overview: in vitro
Measured Metric: pIC50
Convention used: pIC50 is expressed as -log10 of the molar concentration.

Task: Bench note: what pIC50 did Cl.Cl.N=C(N)c1ccc(OCCCCCOc2cccc(-c3cc4cc(C(=N)N)ccc4o3)c2)cc1 [Compound 38, dihydrochloride] show?
Output: 5.52

Task: Bench note: what pIC50 did Cl.Cl.c1cc(C2=NCCN2)ccc1OCCCCOc1ccc(-c2cc3ccc(C4=NCCN4)cc3o2)cc1 [Compound 73, dihydrochloride] show?
Output: 4.77

Task: Bench note: what pIC50 did Cl.Cl.c1cc(C2=NCCN2)ccc1OCCCOc1ccc(-c2cc3cc(C4=NCCN4)ccc3o2)cc1 [Compound 46, dihydrochloride] show?
Output: 4.99

----------
Tested on: Trypanosoma cruzi
Assay Overview: Anti-protozoan data: T. cruzi IC50
Type: cell-based
Test Context: read-out: T. cruzi IC50
Measured Metric: pIC50
Convention used: pIC50 is expressed as -log10 of the molar concentration.

Cl.Cl.N=C(N)c1ccc(OCCCOc2ccc(-c3cc4cc(C(=N)N)ccc4o3)cc2)cc1 [Compound 44, dihydrochloride]; 4.77

Task: Bench note: what pIC50 did "N=C(N)c1cccc(-c2cc3cc(C(=N)N)ccc3o2)c1" show?
Output: 4.63

Task: Bench note: what pIC50 did "c1cc(C2=NCCN2)cc(-c2cc3cc(C4=NCCN4)ccc3o2)c1" show?
Output: 4.40

----------
Assay Overview: in vitro
Measured Metric: pIC50
Convention used: pIC50 is expressed as -log10 of the molar concentration.

CC(C)NC(=N)c1ccc(OCCCCCOc2ccc(-c3cc4cc(C(=N)NC(C)C)ccc4o3)cc2)cc1.Cl.Cl [Compound 51, dihydrochloride]; 4.69
Cl.Cl.N=C(N)c1ccc(OCCCCCCOc2cccc(-c3cc4cc(C(=N)N)ccc4o3)c2)cc1 [Compound 41, dihydrochloride]; 5.51
CC(C)NC(=N)c1ccc(OCCCCCCOc2cccc(-c3cc4ccc(C(=N)NC(C)C)cc4o3)c2)cc1.Cl.Cl [Compound 66, dihydrochloride]; 5.00
Cl.Cl.N=C(N)c1ccc(OCCCCCCOc2ccc(-c3cc4cc(C(=N)N)ccc4o3)cc2)cc1 [Compound 53, dihydrochloride]; 5.48
Cl.Cl.N=C(N)c1ccc2oc(CCc3cc4cc(C(=N)N)ccc4o3)cc2c1 [Compound 8, dihydrochloride]; 4.67

Task: Bench note: what pIC50 did "c1cc(-c2cc3ccc(C4=NCCN4)cc3o2)ccc1C1=NCCN1" show?
Output: 5.34

Task: Bench note: what pIC50 did Cl.Cl.c1cc(C2=NCCN2)ccc1OCCCCCOc1ccc(-c2cc3ccc(C4=NCCN4)cc3o2)cc1 [Compound 76, dihydrochloride] show?
Output: 5.49

Task: Bench note: what pIC50 did Cl.Cl.N=C(N)c1ccc(OCCCCCOc2ccc(-c3cc4ccc(C(=N)N)cc4o3)cc2)cc1 [Compound 74, dihydrochloride] show?
Output: 5.05

Task: Bench note: what pIC50 did CC(C)NC(=N)c1ccc(OCCCOc2cccc(-c3cc4ccc(C(=N)NC(C)C)cc4o3)c2)cc1.Cl.Cl [Compound 57, dihydrochloride] show?
Output: 4.08

Task: Bench note: what pIC50 did Cl.Cl.N=C(N)c1ccc(OCCCOc2ccc(-c3cc4cc(C(=N)N)ccc4o3)cc2)cc1 [Compound 44, dihydrochloride] show?
Output: 5.14

Task: Bench note: what pIC50 did Cl.Cl.N=C(N)c1ccc(OCCCCCCOc2ccc(-c3cc4ccc(C(=N)N)cc4o3)cc2)cc1 [Compound 77, dihydrochloride] show?
Output: 5.10
